Provide the reported percent cytotoxicity of each item.
tested on: E-10 Cells; assay: MTS cytotoxicity assay, E-10; conditions: 20 μM, two days
Give bare numbers, in %.

Please look at the items below and tell me percent cytotoxicity for each one, in order.
1. CC1(O)c2cccc(O)c2C(=O)C2=C(O)C3C(=O)C(C(N)=O)=C(O)CC3CC21 (centres unmarked)
2. CC1(O)c2cccc(O)c2C(=O)C2=C(O)C3(O)C(=O)C(C(N)=O)=C(O)CC3CC21 (centres unmarked)
3. CN(C)C1C(=O)C(C#N)=C(O)C2(O)C(=O)C3=C(O)c4c(O)cccc4C(C)(O)C3CC12 (centres unmarked)
4. CC1(O)c2cccc(O)c2C(=O)C2=C(O)C3(O)C(=O)C(C(N)=O)=C(O)C(O)C3CC21 (centres unmarked)

1. 0
2. 0
3. 0.8
4. 3

For C[C@H]1c2cccc(O)c2C(O)=C2C(=O)[C@]3(O)C(O)=C(C(N)=O)C(=O)C[C@@H]3[C@@H](O)[C@@H]21 , write its percent cytotoxicity.
0
